Where do the numbers come from? From PubChem BioAssay (NCI).

Attribute: TGI
Test system: NCI-H460 lung
method-description: NCI tumour cell line growth inhibition, 48 h

Recorded results for 4 compounds are shown here.
CCSCN(C)c1nc(N(C)C)nc(N(C)C)n1 ... > 100 µM
CCCCCCCCOC(=O)c1c(C)[nH]c(/C=C2\N=C(c3ccc[nH]3)C=C2OC)c1C ... 11 µM
OCC(CCc1ccccc1I)C1=CCC2(CC1)OCCO2 (stereo not drawn) ... 57.7 µM
CN1N=C(c2ccncc2)OC1c1cccc(C(F)(F)F)c1 (stereo not drawn) ... > 100 µM

I have this compound here, Cc1ccc(-c2cc(O)c3nc4ccccc4n3c2)cc1 , and I need its recorded TGI.
> 100 µM

I have this compound here, CCN(Cc1cc(F)ccc1F)c1ccc(CO)c(Cl)c1 , and I need its recorded TGI.
10.8 µM

I have this compound here, O=c1cc(-c2ccc(O)cc2)oc2cc(O[C@@H]3O[C@H](CO)[C@@H](O)[C@H](O)[C@H]3O)cc(O)c12 , and I need its recorded TGI.
> 100 µM

====

Attribute: TGI
Test system: KM12 colon
method-description: NCI tumour cell line growth inhibition, 48 h

CCOC(=O)C(C)Sc1nnc(COc2ccccc2OC)n1-c1ccccc1 (centres undefined) ... > 100 µM
CC(C)(C)CC(C)(C)NC(=S)NO ... > 100 µM
CC(=O)NNc1nc(C)c(C(=O)NNC(=O)C(=O)Nc2cccc(C(C)=O)c2)s1 ... 57.7 µM
CN(C)/C=N\c1ccnc(=O)[nH]1 ... > 100 µM
COc1ccc2c(c1OC)-c1c(c3ccc([N+](=O)[O-])cc3c(=O)n1CCCBr)C2=O ... > 100 µM
C#CCNC(=S)N/N=C(\C)c1ccccn1 ... > 100 µM

Here is the next item to consider.
I have this compound here, CCSCN(C)c1nc(N(C)C)nc(N(C)C)n1 , and I need its recorded TGI.
> 100 µM

====

Test system: HOP-92 NSCLC
method-description: NCI tumour cell line growth inhibition, 48 h; in the data active means GI50 below about 0.43 µM; inactive means the rest
Hi! Could you answer with just one of these? TRUE (active), FALSE (inactive)

Check out these entries, answers already filled in.
CCCCCCCC(=O)OCCCC1[C@]2(C)CC[C@@]3(C)C([C@H](C)CCC=C(C)C)CC[C@]3(C)C2CC[C@]12OC2(C)C (stereo not given in full) ... FALSE
O=C(/C=C/c1ccc(O)c(O)c1)NCc1c[nH]c2ccccc12 ... FALSE
NS(=O)(=O)c1ccc(N2N=C3c4ccccc4CC3C2c2cccs2)cc1 (stereo not given) ... FALSE

For this compound, state the assay outcome: CCN(Cc1cc(F)ccc1F)c1ccc(CO)c(Cl)c1
TRUE

For this compound, state the assay outcome: COc1ccc(Nc2nc3ccccc3c3occc23)cc1
FALSE

For this compound, state the assay outcome: CCN1CCN(c2cc(C)nc(N(CCCNc3ccnc4cc(Cl)ccc34)Cc3ccc4c(c3)OCO4)n2)CC1
FALSE

====

Tested on: A549 NSCLC
method-description: NCI tumour cell line growth inhibition, 48 h
attribute-measured: TGI

Recorded results for 5 compounds are shown here.
NS(=O)(=O)c1ccc(N=Nc2c(O)[nH]c3ccc(C(=O)NCc4ccncc4)cc23)cc1 ... > 25 µM
O=C(/C=C/c1ccc(O)c(O)c1)NCc1c[nH]c2ccccc12 ... > 100 µM
CN1CCN(Cc2ccc(NC(=O)c3cncc(C#Cc4cnc(N)cc4C#N)c3)cc2C(F)(F)F)CC1 ... 15.4 µM
NC(Cc1c[nH]c2cc([N+](=O)[O-])ccc12)C(=O)O (centres undefined) ... > 100 µM
Oc1ccccc1C1C=C(c2ccccc2)NC(N2CCCCC2)=C1c1nc2ccccc2[nH]1 (centres undefined) ... 29.2 µM

I have this compound here, COc1ccc(-c2cc(C(=O)Nc3cc(C(F)(F)F)cc(C(F)(F)F)c3)c3ccccc3n2)cc1 , and I need its recorded TGI.
17.5 µM

I have this compound here, COc1ccc(/C=C/C(=O)c2ccc(-n3cc(CN4CCN(c5cc6c(cc5F)c(=O)c(C(=O)O)cn6C5CC5)CC4)nn3)cc2)cc1OC , and I need its recorded TGI.
> 100 µM

I have this compound here, O=S(=O)(O)c1cccc2cccc(N=Nc3c(O)ccc4ccccc34)c12 , and I need its recorded TGI.
> 100 µM

I have this compound here, CN(C(=O)c1ccc2c(c1)sc1c(=O)n(C)c3ccccc3c12)c1ccccc1 , and I need its recorded TGI.
> 100 µM
